System: S. aureus ATCC 25923
Test: MIC, selected panel of Gram-positive and Gram-negative strains (Example 5)
Assay type: cell-based
Conditions: Staphylococcus aureus, ATCC25923, read-out: MIC S. aureus ATCC 25923

>  <molecule>
COc1c(-c2ccc(N)nc2)ccn2c(=O)c(C(=O)[O-])cc(C3CC3)c12.[K+] [Compound 89K salt]

>  <value unit>
ng/mL

>  <measurement qualifier>
=

>  <MIC>
32

$$$$
>  <molecule>
Cc1c(-c2ccc3[nH]nc(C4CC4)c3c2)ccn2c(=O)c(C(=O)[O-])cc(C3CC3)c12.[K+] [Compound 71K salt]

>  <value unit>
ng/mL

>  <measurement qualifier>
≤

>  <MIC>
4

$$$$
>  <molecule>
Cc1c(-c2ccc(O)c(CN)c2)ccn2c(=O)c(C(=O)[O-])cc(C3CC3)c12.[K+] [Compound 72K salt]

>  <value unit>
ng/mL

>  <measurement qualifier>
=

>  <MIC>
8

$$$$
>  <molecule>
Cc1c(-c2ccc3cn[nH]c3c2)ccn2c(=O)c(C(=O)[O-])cc(C3CC3)c12.[K+] [Compound 83K salt]

>  <value unit>
ng/mL

>  <measurement qualifier>
≤

>  <MIC>
4

$$$$

* * *

Test system: resistant strains of A. baumannii and one strain of Acinetobacter sp.
Assay: MIC without and with sub-inhibitory polymyxin B, whole panel / MIC ranges (Example 4; also strains not listed separately)
Format: cell-based
Conditions: Acinetobacter baumannii, A. baumannii A14; without polymyxin B; 1st experiment; read-out: MIC without PB
result type: MIC (µg/mL)

>  <compound>
Cc1c(-c2ccc(CN)cc2)c(F)cn2c(=O)c(C(=O)O)cc(C3CC3)c12 [Compound 6]

>  <result type>
MIC

>  <result number>
32

$$$$
>  <compound>
Cc1c(-c2ccc(N)cc2)ccn2c(=O)c(C(=O)O)cc(C3CC3)c12 [Compound 8]

>  <result type>
MIC

>  <result number>
32

$$$$
>  <compound>
C[C@@H](O)[C@H]1C(=O)N2C(C(=O)O)=C(SCCN=CN)C[C@H]12 [Imipenem, reference compound]

>  <result type>
MIC

>  <result number>
1

$$$$
>  <compound>
Cc1c(-c2ccc(CN)cc2)ccn2c(=O)c(C(=O)O)cc(C3CC3)c12 [Compound 5]

>  <result type>
MIC

>  <result number>
32

$$$$
>  <compound>
Cc1c(-c2ccc(N)cc2)c(F)cn2c(=O)c(C(=O)O)cc(C3CC3)c12 [Compound 7]

>  <result type>
MIC

>  <result number>
32

$$$$
>  <compound>
C[C@H]1COc2c(N3CCN(C)CC3)c(F)cc3c(=O)c(C(=O)O)cn1c23 [Levofloxacin, reference compound]

>  <result type>
MIC

>  <result number>
32

$$$$

* * *

This listing pairs molecules with measured MIC.
Tested on: B. abortus
Test: microbe, parasite or virus in culture
Type: cell-based
Conditions: Brucella abortus, read-out: MIC B. abortus

>  <structure notation>
Cc1c(-c2ccc(CN)cc2)ccn2c(=O)c(C(=O)O)cc(C3CC3)c12

>  <value unit>
µg/mL

>  <MIC>
1

$$$$
>  <structure notation>
Cc1c(-c2cccc(N)c2)ccn2c(=O)c(C(=O)O)cc(C3CC3)c12

>  <value unit>
µg/mL

>  <MIC>
0.25

$$$$
>  <structure notation>
Cc1c(-c2ccc(CN)cc2)c(F)cn2c(=O)c(C(=O)O)cc(C3CC3)c12

>  <value unit>
µg/mL

>  <MIC>
0.5

$$$$
>  <structure notation>
Cc1c(-c2ccc(N)c(F)c2)ccn2c(=O)c(C(=O)O)cc(C3CC3)c12

>  <value unit>
µg/mL

>  <MIC>
0.125

$$$$
